system: PPARg:RXRa DBDmut IVT, anti-RXR (DBD mutation: RXRa K156A/R161A, NR concentration 270 nM, RXRa partner concentration 90 nM); experiment: PBM binding z-score (relative to random genomic background probes); higher = stronger binding; sequences stand for … in GC…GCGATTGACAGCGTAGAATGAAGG
Entries and their measured PBM binding z-score follow.

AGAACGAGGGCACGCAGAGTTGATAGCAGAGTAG 4.1

Give a short answer stating reported PBM binding z-score for `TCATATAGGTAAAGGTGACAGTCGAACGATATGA` .
4.04

Give a short answer stating reported PBM binding z-score for `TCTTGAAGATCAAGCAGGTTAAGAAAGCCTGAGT` .
1.28

Give a short answer stating reported PBM binding z-score for `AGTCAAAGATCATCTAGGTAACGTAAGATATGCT` .
0.742

Give a short answer stating reported PBM binding z-score for `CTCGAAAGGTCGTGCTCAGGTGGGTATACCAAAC` .
0.456

Give a short answer stating reported PBM binding z-score for `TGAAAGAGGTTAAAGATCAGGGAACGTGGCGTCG` .
0.975

Give a short answer stating reported PBM binding z-score for `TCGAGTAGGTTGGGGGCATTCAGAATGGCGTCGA` .
1.25

Give a short answer stating reported PBM binding z-score for `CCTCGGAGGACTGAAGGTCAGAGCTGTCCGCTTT` .
-0.418
